# SYSTEM: T1, Recombinant human CD4 (R&D Systems, Cat. 10327-CD) (human, UniProt P01730 26-390, limits assumed)
# T1 construct: Bought protein; also called huCD4
# ASSAY_COMMENT: BLI (Octet Red 384), non-clonal supernatant captured on AMC sensors, 100 nM human CD4, 1:1 local fit;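 also: hybridoma antibodies from supernatants, one CD4 concentration giving single-point kinetics per supernatant, with curves fitted over both association and dissociation phases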

# BINDER, kon, M⁻¹ s⁻¹
rows = [
    ("75110_08H11A (antibody, V domains shown, Tested as non-clonal AlivaMab Mouse hybridoma supernatant (human variable regions and human kappa, mouse Fc); also called ADS75110 non-clonal supernatant 08H11A) VH: EVQLVESGGGLVQPGGSLRLSCAASGFTFSSYDMHWVRQATGKGLEWVSTIGTAGDTYYPGSVKGRFTISRENAKNSLYLQMNSLRAGDTAVYYCARGGYSYYGMDVWGQGTTVTVSS VL: EIVLTQSPGTLSLSPGERATLSCGASQSVSSTYLAWYQQKPGQAPRLLIYGASSRATGIPDRFSGSGSGTDFTLTISRLEPEDFAVYYCQQFGSSPFTFGPGTKVDIK", 230000),
    ("75110_04G16A (antibody, V domains shown, Tested as non-clonal AlivaMab Mouse hybridoma supernatant (chimeric: human variable regions and human kappa, mouse Fc, captured by anti-mouse IgG Fc sensors); also called ADS75110 non-clonal supernatant 04G16A) VH: QVQLQESGPGLVKPSQTLSLTCTVSGDSISSGYYYWSWIRQHPGKGLEWIGYISYSGSTYYNPSLKSRLTISVNTSKNQFSLKLSSLTAADTAVYYCARDRPSNFDAFDIWGQGTMVTVSS VL: EIVLTQSPGTLSLSPGERATLSCRASQSVGSTYLAWYQQKPGQAPRLLIYGAFSRATGIPDRFSGSGSGTDFTLTISRLEPEDFAVYYCQQYGSSPLTFGPGTKVDIK", 74000),
    ("75110_10N21A (antibody, V domains shown, Tested as non-clonal AlivaMab Mouse hybridoma supernatant (human variable regions and human kappa, mouse Fc); also called ADS75110 non-clonal supernatant 10N21A) VH: EVQLVESGGGLVQPGGSLRLSCAASGFTFSSYDMHWVRQVTGKGLEWVSTIGTAGDTYYPGSVKGRFTISRENAKNSLYLQMNSLRAGDTAVYYCARGGYYYYGMDVWGQGTTVTVSS VL: EIVLTQSPGTLSLSPGERATLSCRASQSFISSYLAWYQQKPGQAPRLLIYGASSRATGIPDRFSGSGSGTDFTLTISRLDPEDFAVYYCQQSGNSPFTFGPGTKVDVK", 152000),
]
